Test system: COLO 205
Experiment: NCI tumour cell line growth inhibition, 48 h
Active and inactive are the calls of the source. Cut-off read from the data, not from the text of the source: active = GI50 up to about 1.1 µM and inactive = higher.
Your reply should match one of these outcome classes. 1 = active, 0 = inactive

CCc1cn2c(/C=N/N=C(N)N)c(-c3cc(C)c(Cl)cc3Cl)nc2s1
0
Clc1nc(Nc2nc3ccccc3[nH]2)nc(Cl)c1-c1ccccc1
0
COc1cc(Nc2cnc3ccc(C(F)(F)F)cc3n2)cc(OC)c1OC
0

Look up the recorded call for CCC1(CC)C(=O)N(C(=O)c2ccccc2)N(C(=O)c2ccc(Cl)cc2)C1=O in this test.
0

Look up the recorded call for O=C(NC(Cl)(C(F)(F)F)C(F)(F)F)c1ccc(F)cc1 in this test.
0

Look up the recorded call for CN(C)C12C=CC=CC3=C(c4ccccc4)C(c4ccccc4)=C(c4ccccc4)C31c1ccccc1C2 (stereo not given) in this test.
0

Look up the recorded call for CN(C)[C@@H]1C(O)=C(C(=O)NCNc2nc3[nH]nnc3c(=O)[nH]2)C(=O)[C@@]2(O)C(O)=C3C(=O)c4c(O)cccc4[C@@](C)(O)[C@H]3C[C@@H]12 in this test.
0

Look up the recorded call for COC1=C(Cl)C(=O)c2c(O)ccc(O)c2C1=O in this test.
1

Look up the recorded call for COc1ccc(/C=N\N(C)Cc2cccc3ccsc23)cc1 in this test.
0

Look up the recorded call for CO/N=[N+](\[O-])NC(C)C in this test.
0
